Values from patent US9737542B2

- target-or-system: GST-Xa-hAAK1 (Homo sapiens (Human))
- Sequence (Q2M2I8 whole entry): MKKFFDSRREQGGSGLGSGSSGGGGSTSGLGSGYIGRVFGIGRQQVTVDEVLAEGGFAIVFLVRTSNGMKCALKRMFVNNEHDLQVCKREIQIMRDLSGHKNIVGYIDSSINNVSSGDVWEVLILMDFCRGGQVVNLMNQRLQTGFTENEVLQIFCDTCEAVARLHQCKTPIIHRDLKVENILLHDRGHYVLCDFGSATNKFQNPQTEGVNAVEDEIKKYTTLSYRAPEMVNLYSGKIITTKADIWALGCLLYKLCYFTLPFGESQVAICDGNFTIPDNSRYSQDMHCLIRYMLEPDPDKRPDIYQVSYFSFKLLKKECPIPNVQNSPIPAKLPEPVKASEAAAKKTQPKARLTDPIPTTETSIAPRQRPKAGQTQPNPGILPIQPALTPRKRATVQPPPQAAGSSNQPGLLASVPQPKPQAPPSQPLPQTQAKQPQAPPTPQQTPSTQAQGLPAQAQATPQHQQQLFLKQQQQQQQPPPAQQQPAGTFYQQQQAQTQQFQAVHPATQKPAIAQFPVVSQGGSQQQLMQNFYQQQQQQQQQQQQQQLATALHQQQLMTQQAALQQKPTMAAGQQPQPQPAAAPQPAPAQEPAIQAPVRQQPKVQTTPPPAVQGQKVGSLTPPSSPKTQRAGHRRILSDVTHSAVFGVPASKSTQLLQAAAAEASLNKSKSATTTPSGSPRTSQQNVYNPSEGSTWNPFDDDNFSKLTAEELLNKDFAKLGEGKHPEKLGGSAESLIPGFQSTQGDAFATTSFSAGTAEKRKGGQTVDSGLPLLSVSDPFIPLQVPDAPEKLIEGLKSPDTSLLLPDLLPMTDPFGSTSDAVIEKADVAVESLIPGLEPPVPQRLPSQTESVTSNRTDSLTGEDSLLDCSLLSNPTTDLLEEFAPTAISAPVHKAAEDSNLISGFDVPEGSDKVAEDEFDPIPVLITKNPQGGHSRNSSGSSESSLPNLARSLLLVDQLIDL
- protocol-notes: AAK1 Kinase Assay
- Type: biochemical
- conditions: ATP 22 μM; 3 hours at room temperature; listed as IC50 ranges
Consider the following molecules; for each one, report its IC50.

Past entries and their recorded results:
# molecule, target-or-system, result
measured = [
    ("CC(C)Oc1cc(Nc2ncnn3ccc(CN4CCC(N)CC4)c23)cc(-c2nnn(C(C)C)n2)c1 [Example 62]", "GST-Xa-hAAK1 (Homo sapiens (Human))", "0.1 to 1 µM"),
    ("NC1CCN(Cc2cc(Br)n3ncnc(Nc4cccc(-c5cnco5)c4)c23)CC1 [Example 68]", "GST-Xa-hAAK1 (Homo sapiens (Human))", "1 to 5 µM"),
    ("NC1CCN(Cc2ccn3ncnc(Nc4cccc(-c5nc(-c6ccccc6)no5)c4)c23)CC1 [Example 16]", "GST-Xa-hAAK1 (Homo sapiens (Human))", "0.1 to 1 µM"),
    ("NC1CN(Cc2ccn3ncnc(Nc4cccc(-c5nnc(C6CC6)s5)c4)c23)C1 [Example 25]", "GST-Xa-hAAK1 (Homo sapiens (Human))", "0.1 to 1 µM"),
    ("CC(C)c1nc(-c2cc(F)cc(Nc3ncnn4ccc(CN5CCC(N)CC5)c34)c2)no1 [Example 46]", "GST-Xa-hAAK1 (Homo sapiens (Human))", "0.01 to 0.1 µM"),
]

Items follow; give IC50 for each.
1. c1cc(Nc2ncnn3ccc(CN4CC5CNCC5C4)c23)cc(-c2nnc(C3CC3)s2)c1 (stereo not shown) [Example 26]
2. CC(C)c1nc(-c2cc(Cl)cc(Nc3ncnn4ccc(CN5CCC(N)CC5)c34)c2)no1 [Example 45]

Ans:
0.1 to 1 µM
0.01 to 0.1 µM

----------
- target-or-system: GST-Xa-hAAK1 (Homo sapiens (Human))
- protocol-notes: AAK1 Kinase Assay
- Type: biochemical
- conditions: ATP 22 μM; 3 hours at room temperature; listed as IC50 ranges
readout-label: IC50

# molecule, IC50
data = [
    ("NC1CCN(Cc2ccn3ncnc(Nc4cccc(-c5cnco5)c4)c23)CC1", "100 to 1000 nM"),
]

Items follow; give IC50 for each.
1. CC(C)n1nnc(-c2cc(Nc3ncnn4ccc(CN5CCC(N)CC5)c34)cc3[nH]cnc23)n1
2. CCC(C)(C)c1nc(-c2cccc(Nc3ncnn4ccc(CN5CCC(N)CC5)c34)c2)no1
3. CC(C)c1nnc(-c2cccc(Nc3ncnn4ccc(CN5CCC(CN)C5)c34)c2)s1 (stereo not drawn)
4. CC(C)c1nnc(-c2cccc(Nc3ncnn4ccc(CN5CCN(C)CC5)c34)c2)s1
5. CNC1CCN(Cc2ccn3ncnc(Nc4cccc(-c5nnc(C)s5)c4)c23)CC1
6. CC(C)n1nnc(-c2cccc(Nc3ncnn4ccc(CNC5CC6CCC(C5)N6C)c34)c2)n1 (stereo not drawn)
7. CNC1CCN(Cc2ccn3ncnc(Nc4cccc(-c5nnc(C(C)C)s5)c4)c23)CC1

Ans:
1. 100 to 1000 nM
2. 10 to 100 nM
3. 100 to 1000 nM
4. 100 to 1000 nM
5. 100 to 1000 nM
6. 1000 to 5000 nM
7. 100 to 1000 nM

----------
- target-or-system: GST-Xa-hAAK1 (Homo sapiens (Human))
- protocol-notes: AAK1 Kinase Assay
- Format: biochemical
- conditions: ATP 22 μM; 3 hours at room temperature
Consider the following compounds; for each one, report its pIC50.
One number for each entry, as −log10 of the molar value.

Past entries and their recorded results:
# compound, quantitative-readout
rows = [
    ("CC(C)C[C@@H](N)C(=O)Nc1cccc(Nc2ncnn3ccc(C(=O)N4CCC(N)CC4)c23)c1 [Example 110]", 5.11),
    ("CCOC(=O)c1ccn2ncnc(Nc3cccc(-c4nnn(C(C)C)n4)c3)c12 [Example 96]", 6.20),
    ("NC1CCN(Cc2ccn3ncnc(Nc4cccc(-c5noc(C6CCCC6)n5)c4)c23)CC1 [Example 73]", 7.80),
]

Items follow; give pIC50 for each.
1. NC1CCN(Cc2ccn3ncnc(Nc4cccc(-c5noc(C6CCCCC6)n5)c4)c23)CC1 [Example 22]
2. CC(C)n1nnc(-c2cccc(Nc3ncnn4ccc(C(=O)NCC5CC5)c34)c2)n1 [Example 105]
3. CC(C)n1nnc(-c2cc(O)cc(Nc3ncnn4ccc(CN5CCC(N)CC5)c34)c2)n1 [Example 36]
4. CC(C)n1nnc(-c2cccc(Nc3ncnn4ccc(CNCC#N)c34)c2)n1 [Example 66]
5. Cc1ccn2ncnc(Nc3cccc(-c4nnc(C(C)C)s4)c3)c12 [Example 87]

Ans:
[7.85, 6.11, 8.48, 5.96, 6.49]

----------
- target-or-system: GST-Xa-hAAK1 (Homo sapiens (Human))
- protocol-notes: AAK1 Kinase Assay
- Assay type: biochemical
- conditions: ATP 22 μM; 3 hours at room temperature
Lab note: class by IC50, see low: < 70 nM; mid: ≥ 70 nM and < 500 nM; high: ≥ 500 nM

Worked examples follow.
# smi, group-label
records = [
    ("CC(C)(CN)c1nc(-c2cccc(Nc3ncnn4cccc34)c2)no1", "low"),
    ("CC(C)n1nnc(-c2cccc(NCc3ccn4ncnc(Nc5cccc(-c6nnn(C(C)C)n6)c5)c34)c2)n1", "high"),
]

Q: // bin(item) where item = CC(C)n1nnc(-c2cccc(Nc3ncnn4ccc(C(=O)NCC#N)c34)c2)n1
Ans: mid

Q: // bin(item) where item = CC(C)c1nc(-c2ccc(Cl)c(Nc3ncnn4ccc(CN5CCC(N)CC5)c34)c2)no1
Ans: mid

Q: // bin(item) where item = CC(C)c1nc(-c2cccc(Nc3ncnn4cccc34)c2)no1
Ans: mid

Q: // bin(item) where item = CNC(=O)c1ccn2ncnc(Nc3cccc(-c4nnn(C(C)C)n4)c3)c12
Ans: low

Q: // bin(item) where item = Cc1ccn2ncnc(Nc3cc(O)cc(-c4noc(C(C)C)n4)c3)c12
Ans: mid

Q: // bin(item) where item = CCOC(=O)c1ccn2ncnc(Nc3cccc(-c4noc(C(C)C)n4)c3)c12
Ans: high

Q: // bin(item) where item = CC(C)n1nnc(-c2cccc(Nc3ncnn4cccc34)c2)n1
Ans: mid

----------
Consider the following compounds; for each one, report its pIC50.
- target-or-system: GST-Xa-hAAK1 (Homo sapiens (Human))
- protocol-notes: AAK1 Kinase Assay
- Format: biochemical
- conditions: ATP 22 μM; 3 hours at room temperature; listed as IC50 ranges
pIC50: −log10 of the molar value.

# compound, target-or-system, pIC50
measured = [
    ("CC(C)c1nnc(-c2cccc(Nc3ncnn4ccc(CN5CCOCC5)c34)c2)s1 [Example 56]", "GST-Xa-hAAK1 (Homo sapiens (Human))", "5.30 to 6.00"),
    ("CC(C)c1nnc(-c2cccc(Nc3ncnn4ccc(CN5CC6CNCC6C5)c34)c2)s1 (stereo not shown) [Example 29]", "GST-Xa-hAAK1 (Homo sapiens (Human))", "6.00 to 7.00"),
    ("NC1CCN(Cc2ccn3ncnc(Nc4cccc(-c5csnn5)c4)c23)CC1 [Example 14]", "GST-Xa-hAAK1 (Homo sapiens (Human))", "6.00 to 7.00"),
    ("Cc1nc(-c2cccc(Nc3ncnn4ccc(CN5CCC(N)CC5)c34)c2)no1 [Example 13]", "GST-Xa-hAAK1 (Homo sapiens (Human))", "6.00 to 7.00"),
    ("CC(C)n1nnc(-c2cc(F)cc(Nc3ncnn4ccc(CN5CCC(N)CC5)c34)c2)n1 [Example 51]", "GST-Xa-hAAK1 (Homo sapiens (Human))", "8.00 to 9.00"),
]

Items follow; give pIC50 for each.
1. C=Cc1cccc(Nc2ncnn3ccc(CN4CCC(N)CC4)c23)c1 [Example 4]
2. NC1CCN(Cc2ccn3ncnc(Nc4cccc(-c5noc(C6CC6)n5)c4)c23)CC1 [Example 47]

Ans:
1: 6.00 to 7.00; 2: 7.00 to 8.00
